Field: pEC50. Provide a value for each of the compounds that follow.
# Tested on: Human immunodeficiency virus 1
# protocol-notes: Antiviral activity against HIV1 LAV in human PBM cells
# Type: functional, cell-based
# condition-context: Human immunodeficiency virus 1, LAV
Field pEC50 (float): negative decimal logarithm of the concentration in molar.

Input line: Query pEC50 for "CC[C@H]1C=CCC[C@@]2(C[C@@H]3CC[C@@H]4[C@H](C(=O)OCCCCCCCCCCCCCCCC(=O)N(CCCN)CCCN)[C@]5(CCC[C@@H](C)O5)NC(=N2)N34)O1"
Output line: 7.96

Input line: Query pEC50 for "CC[C@H]1C=CCC[C@@]2(C[C@@H]3CC[C@@H]4[C@H](C(=O)OCCCCCCCCCCCCCCCC(=O)N(CCCN)C[C@@H](O)CCN)[C@]5(CCC[C@@H](C)O5)NC(=N2)N34)O1"
Output line: 7.40
